experiment: in vitro; settings: human, Caco-2, Direction = B2A Papp Replicate 2, Caco-2, B2A, replicate 2
MEASURE NAME: Papp B→A (×10⁻⁶ cm/s)
Answer format: numeric, ×10⁻⁶ cm/s implied, no suffix.

Quick check: Papp B→A of N[C@@]1(c2ccccc2Cl)CCC[C@@H](O)C1=O [2R,6R-hydroxynorketamine] ?
48.5

Given CC(C)NCC(O)COc1cccc2ccccc12 (centres unmarked) [propranolol, reference compound] , state its recorded Papp B→A.
26.2

###

target: CYP2C8 (Homo sapiens); assay: CYP inhibition assay, CYP2C8; assay type: in vitro ADME; settings: human; 0.4 μM
Sequence (P10632 whole entry): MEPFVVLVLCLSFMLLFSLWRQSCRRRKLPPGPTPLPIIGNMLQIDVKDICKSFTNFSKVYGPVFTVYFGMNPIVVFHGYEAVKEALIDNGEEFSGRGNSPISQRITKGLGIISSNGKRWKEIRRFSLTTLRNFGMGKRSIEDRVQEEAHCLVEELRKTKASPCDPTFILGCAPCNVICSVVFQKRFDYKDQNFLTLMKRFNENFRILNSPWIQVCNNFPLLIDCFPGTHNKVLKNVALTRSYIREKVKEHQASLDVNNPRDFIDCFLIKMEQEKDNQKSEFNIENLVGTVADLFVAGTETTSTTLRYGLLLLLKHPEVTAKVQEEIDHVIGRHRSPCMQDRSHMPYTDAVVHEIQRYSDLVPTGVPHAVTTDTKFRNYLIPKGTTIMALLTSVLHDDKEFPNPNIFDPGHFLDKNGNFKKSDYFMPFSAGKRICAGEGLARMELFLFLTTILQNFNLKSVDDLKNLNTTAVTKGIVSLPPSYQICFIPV
MEASURE NAME: inhibition at 0.4 µM (%)
The reply should contain only the number, in %.

For the compound N[C@@]1(c2ccccc2Cl)CCC[C@@H](O)C1=O [2R,6R-hydroxynorketamine] , what inhibition at 0.4 µM is on record?
5.63

###

biological target: CYP2C19 (Homo sapiens, UniProt P33261); test: CYP inhibition assay, CYP2C19; assay type: in vitro ADME; conditions: human; 10 μM
Sequence (P33261 whole entry): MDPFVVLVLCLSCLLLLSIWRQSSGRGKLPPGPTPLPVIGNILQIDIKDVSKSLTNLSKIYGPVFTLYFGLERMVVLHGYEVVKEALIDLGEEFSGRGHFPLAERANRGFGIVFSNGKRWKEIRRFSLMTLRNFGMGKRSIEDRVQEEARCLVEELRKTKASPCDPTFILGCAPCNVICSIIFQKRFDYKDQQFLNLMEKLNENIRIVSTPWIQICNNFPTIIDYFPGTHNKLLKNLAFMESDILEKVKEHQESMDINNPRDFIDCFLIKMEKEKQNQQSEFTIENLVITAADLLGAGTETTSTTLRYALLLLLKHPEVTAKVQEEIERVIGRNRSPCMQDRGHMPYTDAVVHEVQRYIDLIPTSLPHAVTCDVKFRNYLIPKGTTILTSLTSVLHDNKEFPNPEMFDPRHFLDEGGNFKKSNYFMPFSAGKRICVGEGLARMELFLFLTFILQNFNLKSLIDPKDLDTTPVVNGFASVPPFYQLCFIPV
MEASURE NAME: inhibition at 10 µM (%)
Quick reminder: number only, in %, skip the unit.

What does the record list as inhibition at 10 µM for N[C@@]1(c2ccccc2Cl)CCC[C@@H](O)C1=O [2R,6R-hydroxynorketamine] ?
6.69

###

target: CYP2C9 (Homo sapiens, UniProt P11712); test: CYP inhibition assay, CYP2C9; format: in vitro ADME; settings: human; 10 μM
Sequence (P11712 whole entry): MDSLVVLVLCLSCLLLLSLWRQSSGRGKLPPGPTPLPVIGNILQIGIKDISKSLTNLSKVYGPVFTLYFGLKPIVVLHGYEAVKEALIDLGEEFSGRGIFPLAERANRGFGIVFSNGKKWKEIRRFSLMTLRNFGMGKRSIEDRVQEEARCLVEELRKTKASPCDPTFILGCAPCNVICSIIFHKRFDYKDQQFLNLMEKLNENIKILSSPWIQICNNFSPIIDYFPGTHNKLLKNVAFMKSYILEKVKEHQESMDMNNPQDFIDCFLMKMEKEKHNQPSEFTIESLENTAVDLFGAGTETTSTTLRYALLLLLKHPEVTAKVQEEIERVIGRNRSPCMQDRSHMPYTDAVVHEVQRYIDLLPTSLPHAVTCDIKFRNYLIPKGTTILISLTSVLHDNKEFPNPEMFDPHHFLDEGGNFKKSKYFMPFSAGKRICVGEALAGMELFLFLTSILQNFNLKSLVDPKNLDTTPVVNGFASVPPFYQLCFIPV
MEASURE NAME: inhibition at 10 µM (%)
Kindly provide the numeric value in % only, without the unit symbol.

Can you share its inhibition at 10 µM? I mean this molecule: N[C@@]1(c2ccccc2Cl)CCC[C@@H](O)C1=O [2R,6R-hydroxynorketamine]
11.9

###

molecular target: CYP3A4 (Homo sapiens); experiment: CYP inhibition assay, CYP3A4 (substrates midazolam and testosterone); assay type: in vitro ADME; settings: substrate midazolam
Sequence (P08684 whole entry): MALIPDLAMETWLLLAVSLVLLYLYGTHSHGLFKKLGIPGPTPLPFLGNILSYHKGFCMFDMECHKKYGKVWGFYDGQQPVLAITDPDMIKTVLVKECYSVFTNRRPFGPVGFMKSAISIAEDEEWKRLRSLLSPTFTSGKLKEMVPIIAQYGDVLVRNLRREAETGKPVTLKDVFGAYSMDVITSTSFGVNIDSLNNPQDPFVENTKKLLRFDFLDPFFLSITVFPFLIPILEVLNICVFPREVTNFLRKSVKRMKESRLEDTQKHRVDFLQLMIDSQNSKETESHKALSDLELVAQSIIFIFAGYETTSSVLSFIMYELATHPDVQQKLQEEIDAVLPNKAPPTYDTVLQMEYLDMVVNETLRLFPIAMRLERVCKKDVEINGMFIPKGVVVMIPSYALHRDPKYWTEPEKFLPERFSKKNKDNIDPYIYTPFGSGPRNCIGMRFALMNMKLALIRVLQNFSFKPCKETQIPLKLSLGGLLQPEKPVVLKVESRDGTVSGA
MEASURE NAME: pIC50
Formally, pIC50 is defined as -log10 of the concentration c, with c in mol/L.

Item N[C@@]1(c2ccccc2Cl)CCC[C@@H](O)C1=O [2R,6R-hydroxynorketamine] with CYP3A4 (Homo sapiens) - pIC50?
4.16

###

biological target: CYP1A2 (Homo sapiens); assay: CYP inhibition assay, CYP1A2; format: in vitro ADME; settings: 0.4 μM
Sequence (P05177 whole entry): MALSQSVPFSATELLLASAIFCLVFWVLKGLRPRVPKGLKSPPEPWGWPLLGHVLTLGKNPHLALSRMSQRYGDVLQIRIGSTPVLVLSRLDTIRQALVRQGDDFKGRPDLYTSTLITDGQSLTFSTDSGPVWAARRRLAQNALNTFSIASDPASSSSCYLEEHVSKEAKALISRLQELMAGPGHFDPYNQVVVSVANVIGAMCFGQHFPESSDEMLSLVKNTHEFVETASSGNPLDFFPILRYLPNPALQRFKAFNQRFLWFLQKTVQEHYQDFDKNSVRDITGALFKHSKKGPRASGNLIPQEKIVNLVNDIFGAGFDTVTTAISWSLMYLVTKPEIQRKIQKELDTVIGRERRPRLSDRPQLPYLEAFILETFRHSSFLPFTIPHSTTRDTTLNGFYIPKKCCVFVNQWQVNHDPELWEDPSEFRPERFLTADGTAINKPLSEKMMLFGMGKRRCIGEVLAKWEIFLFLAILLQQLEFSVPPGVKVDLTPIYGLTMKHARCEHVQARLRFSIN
MEASURE NAME: inhibition at 0.4 µM (%)
Write the number in % without appending the unit.

Form field: reported inhibition at 0.4 µM of N[C@@]1(c2ccccc2Cl)CCC[C@@H](O)C1=O [2R,6R-hydroxynorketamine]
7.55

###

molecular target: CYP2B6 (Homo sapiens, UniProt P20813); experiment: CYP inhibition assay, CYP2B6; assay type: in vitro ADME; details: human; 0.4 μM
Sequence (P20813 whole entry): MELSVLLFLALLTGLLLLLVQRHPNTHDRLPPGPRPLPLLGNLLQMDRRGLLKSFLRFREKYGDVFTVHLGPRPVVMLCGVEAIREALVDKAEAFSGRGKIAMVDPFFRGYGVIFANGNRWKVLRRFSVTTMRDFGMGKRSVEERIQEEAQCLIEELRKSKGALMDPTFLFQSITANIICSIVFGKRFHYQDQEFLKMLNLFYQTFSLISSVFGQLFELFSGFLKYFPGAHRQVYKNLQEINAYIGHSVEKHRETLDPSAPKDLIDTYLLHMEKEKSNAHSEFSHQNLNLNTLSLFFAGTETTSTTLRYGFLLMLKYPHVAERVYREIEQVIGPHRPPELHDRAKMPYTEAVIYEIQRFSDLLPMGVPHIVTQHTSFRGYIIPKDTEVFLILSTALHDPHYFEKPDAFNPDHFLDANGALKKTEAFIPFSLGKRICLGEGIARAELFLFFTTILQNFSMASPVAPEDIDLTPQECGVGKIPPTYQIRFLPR
MEASURE NAME: inhibition at 0.4 µM (%)
Please give a number only; it is taken to be in %.

Lab note: need inhibition at 0.4 µM with CYP2B6 (Homo sapiens, UniProt P20813) for entry N[C@@]1(c2ccccc2Cl)CCC[C@@H](O)C1=O [2R,6R-hydroxynorketamine] , please look it up.
6.03

###

biological target: CYP2B6 (Homo sapiens, UniProt P20813); experiment: CYP inhibition assay, CYP2B6; format: in vitro ADME; settings: human; 1 μM
MEASURE NAME: inhibition at 1 µM (%)
Please reply with the bare figure in % and do not write the unit itself.

Enter reported inhibition at 1 µM observed with CYP2B6 (Homo sapiens, UniProt P20813) for N[C@@]1(c2ccccc2Cl)CCC[C@@H](O)C1=O [2R,6R-hydroxynorketamine]
10.1
